# assay.system: Torsin-1A-interacting protein 1 (Homo sapiens)
# assay.explanation: LAP1 binders from COS7 cell lysate, primary screen, small-molecule microarray, 635/667 nm fluorescence (AID 1116)
# condition.description: COS7-hLAP1 lysate binding, 635 nm fluorescence, higher = more signal
metric.name: composite z-score

Worked examples, 2 molecules total:
C[C@@H]1CC[C@@H](C(=O)O)N[C@H]1c1ccc(-c2ccco2)cc1 ... 0.195
C=C(C)C(=O)OC[C@@H]1CN2[C@@H](CC[C@@H](C)[C@@H]2c2ccc(Br)cc2)C(=O)O1 ... 0.183

Memo: CC(C)CON=C1C[C@@H](O)[C@@H](O)[C@@H]2[C@@H]3C(=O)N(c4cccc(Oc5ccccc5)c4)C(=O)[C@@H]3CC[C@H]12 , reported composite z-score: 0.357

In plain terms, CO[C@H]1COC(=O)CC=C[C@@H](C)COC(=O)[C@@H](OCc2ccccc2)C=C[C@@H]1C has a documented composite z-score of 0.417

composite z-score recorded for this molecule, CC(C)=NO[C@@H](C)c1cc(-c2c(C)cc(C)cc2C)no1 , is 0.1

Origin of values: PubChem BioAssay
